target: Human PARP-1 enzyme (Homo sapiens, UniProt P09874); construct: purchased Trevigen; experiment: In vitro Scintillation Proximity Assay (SPA) for PARP-1 inhibitory activity; format: biochemical; details: read-out: in vitro SPA assay PARP-1 pIC50 (converted)
Sequence (P09874 whole entry): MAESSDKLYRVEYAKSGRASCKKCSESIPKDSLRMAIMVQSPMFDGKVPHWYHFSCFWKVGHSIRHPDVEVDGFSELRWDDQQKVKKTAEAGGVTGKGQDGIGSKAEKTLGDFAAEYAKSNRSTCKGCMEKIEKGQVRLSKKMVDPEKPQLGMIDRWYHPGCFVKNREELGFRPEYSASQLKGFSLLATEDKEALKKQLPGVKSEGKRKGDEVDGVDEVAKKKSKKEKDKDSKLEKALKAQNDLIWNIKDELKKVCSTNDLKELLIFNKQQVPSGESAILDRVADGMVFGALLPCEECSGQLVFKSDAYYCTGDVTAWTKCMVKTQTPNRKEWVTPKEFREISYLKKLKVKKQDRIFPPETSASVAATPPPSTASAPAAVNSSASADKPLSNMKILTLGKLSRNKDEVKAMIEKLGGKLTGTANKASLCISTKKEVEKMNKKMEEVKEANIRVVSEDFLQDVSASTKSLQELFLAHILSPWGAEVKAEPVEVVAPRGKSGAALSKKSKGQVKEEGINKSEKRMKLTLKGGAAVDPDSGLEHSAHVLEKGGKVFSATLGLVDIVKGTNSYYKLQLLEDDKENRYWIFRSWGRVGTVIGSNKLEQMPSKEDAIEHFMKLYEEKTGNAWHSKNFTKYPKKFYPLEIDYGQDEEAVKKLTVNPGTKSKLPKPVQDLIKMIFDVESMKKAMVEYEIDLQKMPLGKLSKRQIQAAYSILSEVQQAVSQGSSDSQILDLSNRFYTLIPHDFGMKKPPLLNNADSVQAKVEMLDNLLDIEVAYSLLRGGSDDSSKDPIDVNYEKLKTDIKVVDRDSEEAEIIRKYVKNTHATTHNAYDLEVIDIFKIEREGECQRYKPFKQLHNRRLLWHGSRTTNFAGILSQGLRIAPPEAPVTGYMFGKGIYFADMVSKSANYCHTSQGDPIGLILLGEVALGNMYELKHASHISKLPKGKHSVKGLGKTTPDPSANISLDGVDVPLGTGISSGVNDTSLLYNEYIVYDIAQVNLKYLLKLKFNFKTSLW
Please map values of IC50 to classes as shown: group A: < 0.1 µM; group B: ≥ 0.1 µM and < 1 µM; group C: ≥ 1 µM

Observe how each entry below is paired with its result.
molecule	assignedClass
CCc1cc2ccc(C(C)(C#N)Cc3cc(C)ccc3C)cc2[nH]c1=O (stereo not shown) [Compound 78]	group C
CCc1cc2ccc([C@@](C)(C#N)Cc3cc(OC)nc(C)n3)cc2[nH]c1=O (single isomer, unassigned) [Compound 361]	group B
CCc1cc2ccc(C(C)(C#N)Cc3c(Cl)cccc3Br)cc2[nH]c1=O (stereo not shown) [Compound 136]	group C

Query: Band of CCc1cc2ccc(C(C)(C#N)Cc3cccc(/C=N/OC)c3)cc2[nH]c1=O (stereo not shown) [Compound 185] ?
Reply: group A

----------
molecular target: TANK-2 enzyme (Homo sapiens); construct: made in house; assay: In vitro Scintillation Proximity Assay (SPA) for TANK-2 inhibitory activity; type: biochemical; conditions: read-out: in vitro SPA assay TANK-2 pIC50 (converted)
Sequence (Q9H2K2 whole entry): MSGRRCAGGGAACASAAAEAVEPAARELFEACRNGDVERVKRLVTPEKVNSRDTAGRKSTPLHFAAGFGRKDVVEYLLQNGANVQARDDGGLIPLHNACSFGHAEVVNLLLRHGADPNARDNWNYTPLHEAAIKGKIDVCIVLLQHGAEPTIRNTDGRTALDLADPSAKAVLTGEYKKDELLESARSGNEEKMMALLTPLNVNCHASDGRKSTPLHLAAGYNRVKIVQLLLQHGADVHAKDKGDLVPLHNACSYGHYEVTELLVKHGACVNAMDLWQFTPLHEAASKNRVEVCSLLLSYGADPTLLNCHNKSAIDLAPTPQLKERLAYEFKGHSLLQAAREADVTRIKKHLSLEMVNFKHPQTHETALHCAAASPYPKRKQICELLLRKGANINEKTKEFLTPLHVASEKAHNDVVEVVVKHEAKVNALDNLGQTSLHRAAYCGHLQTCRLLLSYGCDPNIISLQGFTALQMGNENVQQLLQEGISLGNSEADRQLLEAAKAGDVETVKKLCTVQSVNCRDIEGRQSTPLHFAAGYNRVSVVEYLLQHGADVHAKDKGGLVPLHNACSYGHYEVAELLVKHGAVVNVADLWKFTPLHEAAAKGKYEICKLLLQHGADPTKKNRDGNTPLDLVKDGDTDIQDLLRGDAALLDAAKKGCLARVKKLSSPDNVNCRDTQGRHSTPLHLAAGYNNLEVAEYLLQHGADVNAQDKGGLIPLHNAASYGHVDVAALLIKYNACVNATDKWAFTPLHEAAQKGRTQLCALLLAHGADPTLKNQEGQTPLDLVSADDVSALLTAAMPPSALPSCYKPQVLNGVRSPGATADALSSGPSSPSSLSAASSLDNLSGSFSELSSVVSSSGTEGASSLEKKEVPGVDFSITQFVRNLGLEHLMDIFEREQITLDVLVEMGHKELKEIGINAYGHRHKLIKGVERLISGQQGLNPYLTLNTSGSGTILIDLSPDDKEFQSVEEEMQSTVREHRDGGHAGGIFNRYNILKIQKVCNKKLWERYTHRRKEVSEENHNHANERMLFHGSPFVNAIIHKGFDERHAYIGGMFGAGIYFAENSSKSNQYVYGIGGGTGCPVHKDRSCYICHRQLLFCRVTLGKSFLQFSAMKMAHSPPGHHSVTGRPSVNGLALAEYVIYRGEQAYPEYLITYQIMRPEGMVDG
Simple rule here: IC50 less than 100 nM is 1 (yes), otherwise 0 (no).

compound	assignedClass
CCc1cc2ccc(C(C)(C#N)Cc3cccc(Cl)c3)cc2[nH]c1=O (stereo not drawn)	0 (no)
C=Cc1cccc(CC(C)(C#N)c2ccc3cc(CC)c(=O)[nH]c3c2)c1 (stereo not drawn)	0 (no)
CCc1cc2cc(OC)c(C(C)(C#N)Cc3ccccc3)cc2[nH]c1=O (stereo not drawn)	0 (no)
CCc1cc2ccc(C(C)(C#N)Cc3cccc(OC)n3)cc2[nH]c1=O (stereo not drawn)	0 (no)

Now take the following compound into account.
Query: # TODO verify IC50 < 100 nM strictly for this compound: CCc1cc2ccc(C(C)(C#N)Cc3cccc(N4CCOCC4)c3)cc2[nH]c1=O (stereo not drawn)
Reply: 1 (yes)

----------
Below, each of the compounds is paired with its reported IC50 value.
tested on: PC-3 cells; assay: Antiproliferative activity, Alamar Blue assay, PC-3 cells; assay type: cell-based, human; conditions: Homo sapiens, PC-3, PC3 cells, Alamar Blue; read-out: PC3 antiproliferative activity pIC50 (converted)
Respond with the bare value in nM.

Guide cases for IC50, answers given:
compound	readoutName	unit	experimentalResult
CCc1cc2ccc(C(C)(C#N)COCc3ccccc3)cc2[nH]c1=O (stereo not drawn)	IC50	nM	6310
C#Cc1cccc(CC(C)(C#N)c2ccc3cc(CC)c(=O)[nH]c3c2)n1 (stereo not drawn)	IC50	nM	501

Consider now this further compound.
Query: Dear colleague, please send me the reported IC50 for CCc1cc2ccc(C(C)(C#N)C(C)c3ccccc3)cc2[nH]c1=O (stereo not drawn) when you can.
Reply: 2000

----------
tested on: PC-3 cells; assay: Antiproliferative activity, Alamar Blue assay, PC-3 cells; assay type: cell-based, human; details: Homo sapiens, PC-3, PC3 cells, Alamar Blue; read-out: PC3 antiproliferative activity pIC50 (converted)
Below, each of the molecules is paired with its reported IC50 value.
Respond with the bare value in nM.

molecule	unit	experimentalResult
CCc1cc2ccc([C@@](C)(C#N)Cc3cccc(N(C)C)c3)cc2[nH]c1=O (single isomer, unassigned)	nM	316
CCc1cc2ccc(C(C)(C#N)Cc3ccc(F)c(C#N)c3)cc2[nH]c1=O (stereo not shown)	nM	501
CCc1cc2ccc([C@](C)(C#N)C[C@@H]3Cc4cc(C)ccc4O3)cc2[nH]c1=O (single isomer, unassigned)	nM	10000
Cc1cc2ccc(C(C)(C#N)Cc3cc4ccccc4[nH]3)cc2[nH]c1=O (stereo not shown)	nM	10000
CCc1cc2ccc(C(C)(C#N)Cc3cccc4c3CCN4)cc2[nH]c1=O (stereo not shown)	nM	6310

Query: Dear colleague, please send me the reported IC50 for CCc1cc2ccc(C(C)(C#N)Cc3cccc(/C=C/S(C)(=O)=O)c3)cc2[nH]c1=O (stereo not shown) when you can.
Reply: 501

Query: Dear colleague, please send me the reported IC50 for CCc1cc2ccc(C(C)(C#N)Cc3nccc(OC)n3)cc2[nH]c1=O (stereo not shown) when you can.
Reply: 1260
